experiment: qHTS RealTime-Glo MT Cell Viability Assay in HEK293 cells - 8 hour (AID 1224887); settings: RealTime-Glo luminescence; series mostly up to 76.8 µM; note: nearly all actives have a fitted effect of over 50% in size
Results filed as inconclusive are left out. The source made the active and inactive calls. Calls come from the whole dose curve; as a rule, active = well fitted cell-killing curve with a large enough effect in the repeat runs; inconclusive = weak or mixed curves, or effect the other way; inactive = flat fitted curve, though single readings scatter.
One label from this list, please: active, inactive

The examples below pair each entry with its known result.
CCOC(=O)Cn1cccc1-c1nc(-c2ccc(OC)cc2)c(-c2ccc(OC)cc2)s1    inactive
Clc1nnc(Cl)c2ccccc12    inactive
Cc1cc(=O)oc2cc(O)cc(O)c12    inactive
CCCCCCCCCCCCCCCC[N+](C)(C)CC    active
CCOc1ccc2ccccc2c1C(=O)N[C@@H]1C(=O)N2[C@@H]1SC(C)(C)[C@@H]2C(=O)O    inactive

Kindly review the next compound as well.
Could you please tell me the result logged for O=c1[nH]c(=O)n([C@H]2C[C@H](O)[C@@H](CO)O2)cc1F in this assay?
inactive

---

assay: qHTS assay to identify small molecule agonists of the farnesoid-X-receptor (FXR) signaling pathway - cell viability counter screen (AID 743218); conditions: FXR-bla HEK293T viability, CellTiter-Glo luminescence, 16 h; series mostly up to 62.6 µM; note: nearly all actives have a fitted effect of over 45% in size
Records with an inconclusive call do not appear. The source made the active and inactive calls. Calls come from the whole dose curve; as a rule, active = well fitted cell-killing curve with a large enough effect in the repeat runs; inconclusive = weak or mixed curves, or effect the other way; inactive = no such curve, though single readings can be large or run the other way.
One label from this list, please: active, inactive

The examples below pair each entry with its known result.
COc1ccc2cc1Oc1ccc(cc1)C[C@H]1c3c(cc4c(c3Oc3cc5c(cc3OC)CCN(C)[C@@H]5C2)OCO4)CCN1C    active
O=C1CCc2cc(OCCCCc3nnnn3C3CCCCC3)ccc2N1    inactive
CCO[Si](OCC)(OCC)OCC    inactive
CCOC(=O)NNc1ccc(N(CC)CC(C)O)nn1 (stereo not drawn)    inactive
CCOC(=O)c1ccc(C2CCC(NC[C@H](O)COc3ccc(O)c(NS(C)(=O)=O)c3)CC2)cc1 (stereo partly drawn)    active
O=c1[nH]c(=O)n([C@H]2C[C@H](O)[C@@H](CO)O2)cc1F    active
Oc1c(I)cc(Cl)c2cccnc12    inactive

Could you please tell me the result logged for C=C(C)c1cccc(C(=C)C)c1 in this assay?
inactive

---

Assay: qHTS assay to identify small molecule agonists of the estrogen receptor beta (ER-beta) signaling pathway - cell viability counter screen (AID 1259380); note: nearly all actives have a fitted effect of over 30% in size; note: potency is the fitted concentration of half-maximal effect
Details: ER-beta-bla HEK293T viability, CellTiter-Glo luminescence, 16 h; series mostly up to 92.4 µM
Excerpt: National Center for Advancing Translational Sciences [NCATS] NIH Chemical Genomics Center [NCGC] U.S. Environmental Protection Agency [EPA] National Institutes of Environmental Health Sciences [NIEHS] National Toxicology Program [NTP] U.S. Food and Drug Administration [FDA] Estrogen receptor (ER), a nuclear hormone receptor, plays an important role in development, metabolic homeostasis and reproduction. […]
Results filed as inconclusive are left out. Active and inactive are the calls of the source. Calls follow the shape of the dose curve; as a rule, active = well fitted cell-killing curve with a large enough effect in the repeat runs; inconclusive = weak or mixed curves, or effect the other way; inactive = flat fitted curve, though single readings scatter.
ATTRIBUTE_MEASURED: Potency

Look over these answered cases.
CCCCN(CCCC)CC(O)c1cc(Cl)cc2c1-c1ccc(Cl)cc1/C2=C/c1ccc(Cl)cc1 (stereo unspecified)    29.8 µM (active)
Cc1c(C)c([N+](=O)[O-])c(C(C)(C)C)c([N+](=O)[O-])c1C    inactive
Cc1cc(=O)oc2cc(O)cc(O)c12    inactive
COc1ccc(-c2coc3cc(O)ccc3c2=O)cc1    inactive
CCCCCC(C)OC(=O)COc1ccc(Cl)c2cccnc12 (stereo unspecified)    54.5 µM (active)

I have this molecule here, Nc1nc2c(ncn2COCCO)c(=O)[nH]1 , and I need its recorded Potency.
inactive

I have this molecule here, O=S(=O)(O)c1ccccc1/C=C/c1ccc(-c2ccc(/C=C/c3ccccc3S(=O)(=O)O)cc2)cc1 , and I need its recorded Potency.
inactive

I have this molecule here, Clc1nnc(Cl)c2ccccc12 , and I need its recorded Potency.
inactive

I have this molecule here, c1cnccn1 , and I need its recorded Potency.
inactive

I have this molecule here, CC(C)(C)c1csc(-c2cc3cc(OCc4ccccc4CC(=O)O)ccc3o2)n1 , and I need its recorded Potency.
4.86 µM (active)
